IC50 values for KIF18A (Homo sapiens (Human), UniProt Q8NI77), compiled from several publications.

Some solved entries appear below for comparison.
Task: Retrieve IC50 on KIF18A (Homo sapiens (Human), UniProt Q8NI77); query CS(=O)(=O)Nc1ccc(C(=O)Nc2cn3ccnc3c(N3CCC(F)(F)CC3)n2)c(N2CCC3(CC2)CC3)c1
Output: < 0.2 µM

Task: Retrieve IC50 on KIF18A (Homo sapiens (Human), UniProt Q8NI77); query CC(C)Oc1ccc(NC(=O)c2ccc(NS(=O)(=O)CCO)cc2N2CCC3(CC2)CC3)c2cc3n(c12)CC(C)(C)OC3
Output: 0.05 to 0.5 µM

Task: Retrieve IC50 on KIF18A (Homo sapiens (Human), UniProt Q8NI77); query COC1CCn2c1nc1c(NC(=O)c3ccc(NS(=O)(=O)CCO)cc3N3CCC4(CC3)CC4)cccc12 (centres unmarked)
Output: < 0.2 µM

Task: Retrieve IC50 on KIF18A (Homo sapiens (Human), UniProt Q8NI77); query Cc1cc(NC(=O)c2cc3c(cc2N2CCC4(CC2)CC4)N(S(C)(=O)=O)CC3)nc(N2CCC(F)(F)CC2)n1
Output: 0.05 to 0.5 µM

Task: Retrieve IC50 on KIF18A (Homo sapiens (Human), UniProt Q8NI77); query Nc1cc(NS(=O)(=O)CCO)cc(N2CCC3(CC2)CC3)c1C(=O)Nc1cccc2c1ccn2CC1CC1
Output: 0.05 to 0.5 µM

More entries:
Task: Retrieve IC50 on KIF18A (Homo sapiens (Human), UniProt Q8NI77); query CC(C)c1cnc2c(NC(=O)c3ccc(NS(=O)(=O)CCO)cc3N3CCC4(CC3)CC4)snc2c1
Output: < 0.2 µM

Task: Retrieve IC50 on KIF18A (Homo sapiens (Human), UniProt Q8NI77); query O=C(Nc1ccc(F)c2c1cc1n2CCOC1)c1ccc(NS(=O)(=O)CCO)cc1N1CCC(=C(F)F)CC1
Output: ≤ 0.05 µM

Task: Retrieve IC50 on KIF18A (Homo sapiens (Human), UniProt Q8NI77); query O=C(Nc1cccc2c1nc1n2CC2CCC1C2)c1ccc(NS(=O)(=O)CCO)cc1N1CCC2(CC1)CC2 (centres unmarked)
Output: < 0.2 µM

Task: Retrieve IC50 on KIF18A (Homo sapiens (Human), UniProt Q8NI77); query O=C(Nc1ccnc2c1cc1n2CCC(F)(F)C1)c1ccc(NS(=O)(=O)CCO)cc1N1CCC(=C(F)F)CC1
Output: ≤ 0.05 µM

Task: Retrieve IC50 on KIF18A (Homo sapiens (Human), UniProt Q8NI77); query O=C(Nc1cc2c(c(N3CCOCC3)c1)OCC2)c1ccc(NS(=O)(=O)CCO)cc1N1CCC2(CC1)CC2
Output: < 0.2 µM

###

IC50 values for UniProtKB Q8NI77, compiled from several publications.

Some solved entries appear below for comparison.
Task: Retrieve IC50 on UniProtKB Q8NI77; query O=C(Nc1cc2ccoc2c(N2CCC(F)(F)CC2)n1)c1ccc(NS(=O)(=O)CCO)cc1N1CCC2(CC1)CC2
Output: < 200 nM

Task: Retrieve IC50 on UniProtKB Q8NI77; query O=C(Nc1cccc2c1CCCCN2CC1CC1)c1ccc(NS(=O)(=O)CCO)cc1N1CCC2(CC1)CC2
Output: 500 to 5000 nM

Task: Retrieve IC50 on UniProtKB Q8NI77; query O=C(Nc1ccc(NS(=O)(=O)CCO)cc1N1CCC2(CC1)CC2)c1cccc2c1cc1n2CCOC1
Output: ≤ 50 nM

Task: Retrieve IC50 on UniProtKB Q8NI77; query O=C(Nc1cc(F)cc2c1cc1n2CCOC1)c1ccc(NS(=O)(=O)CCO)cc1N1CCC2(CC1)CC2
Output: ≤ 50 nM

More entries:
Task: Retrieve IC50 on UniProtKB Q8NI77; query O=C(Nc1ccc(=O)n(C2CCOCC2)n1)c1ccc(NS(=O)(=O)CCO)cc1N1CCC2(CC1)CC2
Output: 50 to 500 nM

Task: Retrieve IC50 on UniProtKB Q8NI77; query O=C(Nc1cc2c(c(N3CCC(F)(F)CC3)c1)CCC2)c1ccc(NS(=O)(=O)CCO)cc1N1CCC2(CC1)CC2
Output: < 200 nM

Task: Retrieve IC50 on UniProtKB Q8NI77; query O=C(Nc1cccc2c1cc1n2CCCC1O)c1ccc(NS(=O)(=O)CCO)cc1N1CCC2(CC1)CC2 (stereo not shown)
Output: ≤ 50 nM

Task: Retrieve IC50 on UniProtKB Q8NI77; query O=C(Nc1cccc2c1C1(CC1)C(=O)N2CC1CC1)c1ccc(NS(=O)(=O)CCO)cc1N1CCC2(CC1)CC2
Output: > 5000 nM

Task: Retrieve IC50 on UniProtKB Q8NI77; query CC1(C)Cn2c(nc3c(NC(=O)c4ccc(NS(=O)(=O)CCO)cc4N4CCC(=C(F)F)CC4)cccc32)CO1
Output: ≤ 50 nM

Task: Retrieve IC50 on UniProtKB Q8NI77; query O=C(Nc1cn2ccnc2c(N2CCC(F)(F)CC2)n1)c1ccc(NS(=O)(=O)CCO)cc1N1CCC2(CC1)CC2
Output: < 200 nM

Task: Retrieve IC50 on UniProtKB Q8NI77; query Cc1cc(NC(=O)c2cc3c(cc2N2CCC4(CC2)CC4)N(S(=O)(=O)CCO)CC3)nc(N2CCC(F)(F)CC2)n1
Output: < 50 nM

Task: Retrieve IC50 on UniProtKB Q8NI77; query O=C(Nc1ccc(F)c2c1nc1n2CCCC1)c1ccc(NS(=O)(=O)CCO)cc1N1CCC2(CC1)CC2
Output: < 200 nM

Task: Retrieve IC50 on UniProtKB Q8NI77; query Cc1cc(NC(=O)c2c(N)cc(NS(=O)(=O)CCO)cc2N2CCC3(CC2)CC3)nc(N2CCC(F)(F)CC2)n1
Output: 50 to 500 nM

Task: Retrieve IC50 on UniProtKB Q8NI77; query CN1CCOc2ccc(NC(=O)c3ccc(NS(=O)(=O)CCO)cc3N3CCC4(CC3)CC4)nc21
Output: < 200 nM

Task: Retrieve IC50 on UniProtKB Q8NI77; query O=C(Nc1cc2nccn2c(N2CCC3(CC2)CC3)n1)c1ccc(NS(=O)(=O)CCO)cc1N1CCC2(CC1)CC2
Output: < 200 nM

Task: Retrieve IC50 on UniProtKB Q8NI77; query O=C(Nc1cccc2c1nc1n2CCCCCC1)c1ccc(NS(=O)(=O)CCO)cc1N1CCC2(CC1)CC2
Output: < 200 nM
